I'd appreciate it if you could supply log10 IC50 values for the items below.
Study system: CDK2/Cyclin E1 (Homo sapiens, UniProt P24941)
Method: CDK2/Cyclin E1 TR-FRET biochemical assay, 1 mM ATP
Condition parameters: 0.15 μM Rb (Ser780)-biotin substrate, 90 min reaction, Table 2
Plainly stated, the numbers are log10 of IC50 given in nM.

Known results for molecules:
INSERT INTO results (molecule, numeric_result) VALUES
  ('CC(C)(C)c1coc(C2CCC(c3cc(Nc4ccc5c(c4F)CS(=O)(=O)N5)n[nH]3)C2)n1 (stereo not shown)', 1.89),
  ('CC(C)(C)c1cnc(C2CCC(c3cc(Nc4cc5c(cc4F)S(=O)(=O)NC5)n[nH]3)C2)o1 (single isomer, unassigned) [Example 17c]', 2.01),
  ('Cc1[nH]nc(C(C)(C)C)c1O[C@@H]1CC[C@H](c2cc(Nc3ccc4c(c3F)CNS4(=O)=O)n[nH]2)C1 (relative stereo)', 3.05),
  ('O=S1(=O)NCc2cc(Nc3cc(C4CCC(c5ncc(C6CC6)o5)C4)[nH]n3)c(F)cc21 (stereo not shown)', 1.86);

Record log10 IC50 per entry; entries follow.
1. CC(C)c1cnc(C2CCC(c3cc(Nc4ccc5c(c4F)CS(=O)(=O)N5)n[nH]3)C2)o1 (single isomer, unassigned) [Example 152a]
2. CC(C)(C)c1cnc(C2CCC(c3cc(Nc4cc5c(cc4F)S(=O)(=O)NC5)n[nH]3)C2)o1 (single isomer, unassigned) [Example 17b]
3. CC(C)c1ccnc(C2CCC(c3cc(Nc4ccc5c(c4F)CNS5(=O)=O)n[nH]3)C2)c1 (stereo not shown)

A.
1: 0.45; 2: 3.89; 3: 1.86

* * *

Study system: CDK2/Cyclin E1 (Homo sapiens)
Method: CDK2/Cyclin E1 TR-FRET biochemical assay, 1 mM ATP
Condition parameters: 0.15 μM Rb (Ser780)-biotin substrate, 90 min reaction, Table 2
pIC50: −log10 of the molar value.
Record True whenever pIC50 is at 7 or higher; record False when lower.

INSERT INTO measurements (compound, cat) VALUES
  ('CC(C)(C)c1coc(C2CCC(c3cc(Nc4ccc5c(c4F)CNS5(=O)=O)n[nH]3)C2)n1 (stereo not drawn)', 'False'),
  ('CC(C)(C)c1ccc([C@@H]2CC[C@H](c3cc(Nc4ccc5c(c4F)CNS5(=O)=O)n[nH]3)C2)o1 (relative stereo)', 'False'),
  ('CC(C)(C)c1ccc(C2CCC(c3cc(Nc4ccc5c(c4F)CNS5(=O)=O)[nH]n3)C2)nc1 (stereo not drawn)', 'False'),
  ('CC(C)c1cnc(C2CCC(c3cc(Nc4ccc5c(c4F)CCS(=O)(=O)N5)n[nH]3)C2)o1 (stereo not drawn)', 'True'),
  ('CC(C)(O)c1cnc(C2CCC(c3cc(Nc4ccc5c(c4F)CS(=O)(=O)C5)n[nH]3)C2)o1 (stereo not drawn)', 'True'),
  ('COC(=O)c1nc(C2CCC(c3cc(Nc4ccc5c(c4F)CNS5(=O)=O)n[nH]3)C2)oc1C(C)(C)C (stereo not drawn)', 'False');

Q. I'd appreciate it if you could say whether CC(C)(C)c1cnnc(C2CCC(c3cc(Nc4cc5c(cc4F)S(=O)(=O)NC5)n[nH]3)C2)c1 (stereo not drawn) has pIC50 at least equal to 7.
A. False

Q. How about CC(C)(O)c1cc(C2CCC(c3cc(Nc4ccc5c(c4F)CS(=O)(=O)N5)n[nH]3)C2)n[nH]1 (stereo not drawn) ?
A. False

Q. How about CC(C)(C)c1cnnc(C2CCC(c3cc(Nc4ccc5c(c4F)CNS5(=O)=O)n[nH]3)C2)c1 (stereo not drawn) ?
A. False

Q. How about CC(C)(C)c1ccnc(C2CCC(c3cc(Nc4cc5c(cc4F)S(=O)(=O)NC5)n[nH]3)C2)c1 (stereo not drawn) ?
A. False

Q. How about CN1c2ccc(Nc3cc(C4CCC(c5ncc(C(C)(C)C)o5)C4)[nH]n3)cc2CS1(=O)=O (stereo not drawn) ?
A. True
